Recorded CC50 by entry
- method: in vitro
- settings: human, HeLa-ACE2 Uninfected Tox CC50 [μM], Table 4; aggregated data, Geomean, n = 3
recordedEndpoint: CC50 (µM)

INSERT INTO results (molecule, signqualifier, reading) VALUES
  ('CCCCCCC1C(=O)O[C@H](C)[C@H](NC(=O)c2cccc(NC=O)c2O)C(=O)O[C@@H](C)[C@@H]1OC(=O)CC(C)C (stereo partly shown) [Antimycin A]', '>', 39.8),
  ('N=C(N)c1ccc2cc(OC(=O)c3ccc(CNC(=O)CCCC(=O)O)o3)ccc2c1', '>', 39.8),
  ('CC/C(=C(/c1ccc(/C=C/C(=O)O)cc1)c1ccc2[nH]ncc2c1)c1ccc(F)cc1Cl', '=', 11),
  ('Cn1c(C#N)ccc1-c1ccc2c(c1)C(C)(C)OC(=S)N2', '=', 0.128),
  ('CCCCCCCCCCCCCC(=O)O[C@@H]1[C@@H](C)[C@@]2(O)[C@@H](C=C(CO)C[C@]3(O)C(=O)C(C)=C[C@@H]23)[C@@H]2C(C)(C)[C@]12OC(C)=O [Phorbol 12-myristate 13-acetate]', '=', 0.201),
  ('CC(N)c1ccc(C(=O)Nc2ccncc2)cc1-c1ccc(F)cc1 (stereo not shown)', '=', 35.8),
  ('N=C(N)Nc1ccc(C(=O)Oc2ccc(S(N)(=O)=O)cc2)cc1', '>', 39.8);

====

- System: SARS-CoV-2
- settings: Table 4
recordedEndpoint: Calu3 SI CC50/CoV-2 EC50

INSERT INTO measurements (compound, reading) VALUES
  ('C=Cc1cc(C(=O)Nc2ccc(C(=N)N)cc2)c(-c2ccc(C(=O)NCC3CC3)nc2C(=O)O)cc1OC [Avoralstat]', '>77'),
  ('CCOc1ccc(Cc2nc3cc(N(C)S(=O)(=O)c4cccs4)ccc3n2CC2CCCCC2)nc1 [AZ-11713908]', '>8'),
  ('N#Cc1cccc(C(C(=O)NCC(c2ccccc2)c2ccccc2)N(CCc2c[nH]cn2)C(=O)c2ccccc2C(=O)c2ccccc2)c1 (stereo not shown) [GENZ-29155]', '>6.41'),
  ('CC[C@H]1CN2CCc3cc(OC)c(OC)cc3[C@@H]2C[C@@H]1C[C@H]1NCCc2cc(OC)c(OC)cc21 [Emetine]', 19.97);

====

Recorded pEC50 by entry
- System: SARS-CoV-2
- method: microbe, parasite or virus in culture
- settings: Severe acute respiratory syndrome coronavirus 2, HeLa-ACE2, read-out: SARS-CoV-2 EC50
pEC50: −log10 of the molar value.
recordedEndpoint: pEC50

INSERT INTO measurements (chemsmiles, reading) VALUES
  ('O=C(c1ccc(OCCN2CCCCC2)cc1)c1c(-c2ccc(O)cc2)sc2cc(O)ccc12', 5.38),
  ('CCC(CC)COC(=O)[C@H](C)N[P@](=O)(OC[C@H]1O[C@@](C#N)(c2ccc3c(N)ncnn23)[C@H](O)[C@@H]1O)Oc1ccccc1', 6.71),
  ('Cc1c(-c2ccc(O)cc2)n(Cc2ccc(OCCN3CCCCCC3)cc2)c2ccc(O)cc12', 5.46),
  ('Cc1cccc(/C=N/Nc2cc(N3CCOCC3)nc(OCCc3ccccn3)n2)c1', 6.74);

====

Below are molecules with their HeLa-ACE2 CC50/CoV-2 EC50 as measured on SARS-CoV-2.
recordedEndpoint: HeLa-ACE2 CC50/CoV-2 EC50

INSERT INTO measurements (molecule, signqualifier, reading) VALUES
  ('CN(C)CCC(Oc1ccc2c(c1)C(=O)CC(c1ccccc1)O2)c1ccccc1 (stereo not drawn)', '>', 6.13),
  ('COC(CNCC(C)C)COc1c(C)csc1C(=O)CCc1ccccc1 (stereo not drawn)', '=', 10.3),
  ('COc1ccc2cc1Oc1ccc(cc1)C[C@H]1c3cc(c(OC)cc3CCN1C)Oc1c(OC)c(OC)cc3c1[C@H](C2)N(C)CC3', '>', 16.08),
  ('COc1cc(-n2cnc3cc(-c4ccc(Cl)cc4)sc3c2=O)ccc1OCCN1CCCC1', '=', 11.16),
  ('NC1(c2ccc(-c3nc4ccn5c(=O)[nH]nc5c4cc3-c3ccccc3)cc2)CCC1', '>', 20.63),
  ('CC[C@@H](C(=O)O)[C@@H]1O[C@@H]([C@@H](C)[C@H](O)[C@H](C)C(=O)[C@H](CC)[C@H]2O[C@]3(C=C[C@@H](O)[C@]4(CC[C@@](C)([C@H]5CC[C@](O)(CC)[C@H](C)O5)O4)O3)[C@H](C)C[C@@H]2C)[C@@H](C)C[C@@H]1C', '=', 2.31),
  ('COC(=O)C1=C(C)NC(C)=C(C(=O)OC)C1c1cc([N+](=O)[O-])ccc1OCCCCNC[C@H](O)COc1ccccc1', '=', 6.08),
  ('COc1ccc2cc1Oc1ccc(cc1)C[C@H]1c3c(cc4c(c3Oc3cc5c(cc3OC)CCN(C)[C@@H]5C2)OCO4)CCN1C', '>', 25.76),
  ('CCN(CC)CCCNc1ccnc2cc(Cl)ccc12', '=', 32.34),
  ('C[C@@H]1CCCN1CCc1cc2cc(-c3ccc(C#N)cc3)ccc2o1', '=', 11.18),
  ('Cc1cn2nc(-c3cc(=O)n4cc(N5CCNC6(CC6)C5)ccc4n3)cc(C)c2n1', '=', 2.53),
  ('CCCN1CCN(c2ccc(C(=O)NC3(C(=O)NCC#N)CCCCC3)cc2)CC1', '>', 7.79),
  ('COc1ccc2nc3cc(Cl)ccc3c(Nc3cc(CN4CCCC4)c(O)c(CN4CCCC4)c3)c2n1', '>', 4.86),
  ('Cc1cccc(C)c1NC(=O)CN1CCN([C@@H]2CCN(C(=O)c3cc(C(F)(F)F)cc(C(F)(F)F)c3)[C@@H](Cc3ccccc3)C2)CC1', '=', 3.73),
  ('COc1cc2c(Nc3ccc(Cl)c(Cl)c3F)ncnc2cc1OC[C@@H]1C[C@@H]2CN(C)C[C@@H]2C1', '>', 8.46);
